Every entry's value here was drawn from ChEMBL document CHEMBL1201862.

System: MDA-MB-435
procedureDetails: NCI tumour cell line growth inhibition, 48 h
Calls of active or inactive are those of the source. Rule as the data show it: active = GI50 up to about 1.1 µM and inactive = higher.

>  <compound>
N#Cc1ccc(CSC2=C(c3ccc(Cl)cc3)S/C(=C3\SC(SCc4ccc(C#N)cc4)=C(c4ccc(Cl)cc4)S3)S2)cc1

>  <systemTested>
MDA-MB-435

>  <GI50>
> 100 µM (inactive)

$$$$
>  <compound>
CC1=CC(=O)/C(=C/Nc2nc(-c3ccc([N+](=O)[O-])cc3)cs2)C(=O)O1

>  <systemTested>
MDA-MB-435

>  <GI50>
> 100 µM (inactive)

$$$$
>  <compound>
NC(=O)NCCCC(NC(=O)OCCCCn1ccc(=O)[nH]c1=O)C(=O)O (centres undefined)

>  <systemTested>
MDA-MB-435

>  <GI50>
> 100 µM (inactive)

$$$$
>  <compound>
O=C(/C=C\Nc1ccccc1O)C(F)(F)F

>  <systemTested>
MDA-MB-435

>  <GI50>
60.1 µM (inactive)

$$$$
>  <compound>
CCC1(c2ccccc2)C(=O)N=C(c2ccccc2)N1CCc1ccccc1 (centres undefined)

>  <systemTested>
MDA-MB-435

>  <GI50>
> 100 µM (inactive)

$$$$
>  <compound>
CCCCCC(O)C(O)CCC[C@H](O)[C@H]1CC[C@H]([C@H]2CC[C@H]([C@H](O)CCCCCCCCCCCCC3=C[C@H](C)OC3=O)O2)O1 (some centres undefined)

>  <systemTested>
MDA-MB-435

>  <GI50>
1.5 µM (inactive)

$$$$
>  <compound>
COc1ccc(C(=O)/C(Br)=C/C(=O)O)cc1

>  <systemTested>
MDA-MB-435

>  <GI50>
25.8 µM (inactive)

$$$$
>  <compound>
COc1cc(OC)c2c(c1-c1ccc(C)cc1)CC(C)N(Cc1ccccc1)[C@H]2C (some centres undefined)

>  <systemTested>
MDA-MB-435

>  <GI50>
33.3 µM (inactive)

$$$$
>  <compound>
O=C1NC(S(=O)(=O)O)=NNC12c1ccccc1-c1ccccc12

>  <systemTested>
MDA-MB-435

>  <GI50>
> 10 µM (inactive)

$$$$

* * *

Overview of reported GI50 across a group of compounds:
Test system: OVCAR-4
procedureDetails: NCI tumour cell line growth inhibition, 48 h
The source made the active and inactive calls. Rule as the data show it: active = GI50 up to about 1.1 µM and inactive = higher.
readoutLabel: GI50

>  <compound>
O=C1NC(=S)NC(=O)C1=Cc1cc2c(cc1[N+](=O)[O-])OCO2

>  <valueObserved>
> 100 µM (inactive)

$$$$
>  <compound>
COC(=O)NN(C(=O)OC)c1c(-c2ccccc2)nc(SC)n1N

>  <valueObserved>
> 100 µM (inactive)

$$$$
>  <compound>
CC(C)C1CC(CO)(CNc2nc(N)nc(Cl)c2C=O)C1 (stereo not given)

>  <valueObserved>
4.81 µM (inactive)

$$$$
>  <compound>
Cc1cc2c(c(C(=O)O)c1C)-c1cccc(Cl)c1C2=O

>  <valueObserved>
> 100 µM (inactive)

$$$$
>  <compound>
Cn1cc(C(=O)NCCC(=N)N)cc1NC(=O)C1=[N+](C)C=C(NC(=O)c2cccc(C(=O)NC3=CC(C(=O)Nc4cc(C(=O)NCCC(=N)N)cn4C)=[N+](C)C3)c2)C1

>  <valueObserved>
> 100 µM (inactive)

$$$$
>  <compound>
CC(C)(C)OC(=O)N1CCCC1C(=O)NCCNc1ccc(NCCNC(=O)C2CCCN2C(=O)OC(C)(C)C)c2c1C(=O)c1ccccc1C2=O (stereo not given)

>  <valueObserved>
15 µM (inactive)

$$$$
>  <compound>
NCCCNCCSSCc1ccccc1CSSCCNCCCN

>  <valueObserved>
70.6 µM (inactive)

$$$$
>  <compound>
CC(=O)/C=N/CC(=O)O

>  <valueObserved>
> 100 µM (inactive)

$$$$
>  <compound>
C=CCOc1ccc(C(=N/NC(=O)c2ccccc2)/N=N/c2ccccc2)cc1OC

>  <valueObserved>
89.9 µM (inactive)

$$$$
>  <compound>
COc1ccc2c(cnc3c4cc(OC)c(OC)cc4ccc23)c1

>  <valueObserved>
> 100 µM (inactive)

$$$$
